# Tested on: Artemia salina
# Assay Overview: Toxicity in Artemia salina after 24 hrs
# Assay type: organism-based
# Cond: in vivo
Classes based on LD50: lowest (below 0.5 ppm), middle (0.5 ppm to below 5 ppm), highest (5 ppm or more)

1) C#CCCCCCCCCCCCCCCCC/C=C\CC/C=C\C#CC(O)C#CCCCC/C=C\CCCCCCCCC(O)C#C (centres undefined) ... highest
2) C#CCCCCCCCCCCCCCCCC/C=C\CC/C=C/C#CC(=O)C#CCCCC/C=C\CCCCCC/C=C/C(O)C#C (centres undefined) ... middle
3) C#CC(=O)/C=C/CCCCCC/C=C\CCCCC#CC(O)C#C/C=C/CC/C=C\CCCCCCCCCCCCC/C=C/C(=O)C#C (centres undefined) ... lowest
4) C#CCCCCCCCCCCCCCCCC/C=C\CC/C=C\C#CC(O)C#CCCCC/C=C\CCCCCC/C=C/C(O)C#C (centres undefined) ... lowest
5) C#CC(=O)/C=C/CC/C=C\CCCC/C=C\CCC#CC(O)C#C/C=C/CC/C=C\CCCCCCCCCCCCC/C=C/C(O)C#C (centres undefined) ... middle
6) C#CCCCCCCCCCCCCCCCC/C=C\CCCCC#CC(=O)C#CCCCC/C=C\CCCCCC/C=C/C(O)C#C (centres undefined) ... highest
7) C#C/C=C\CCCCCCCCCCCCCC/C=C\CC/C=C\C#CC(O)C#CCCCC/C=C\CCCCCC/C=C/C(O)C#C (centres undefined) ... middle
